- Protocol details: Ratio of drug level in brain to plasma of rat
- Format: ADME, cell-free
- Measurement parameters: read-out: BPR
Reported metric: Kp
Write the value as a bare number.

[ask] Fill in reported Kp for this entry: `COC(=O)N[C@H](C(=O)N1CC(F)(F)C[C@H]1c1ncc(-c2ccc(-c3ccc4c(ccc5nc([C@@H]6C[Si](C)(C)CN6C(=O)[C@@H](NC(=O)OC)C(C)C)[nH]c54)c3)cc2)[nH]1)C(C)C`
[reply] 0.04

====

- Protocol details: Protein binding in cynomolgus monkey plasma
- Type: ADME, cell-free, Macaca fascicularis
- Measurement parameters: read-out: PPB
Reported metric: fraction unbound

[ask] Fill in reported fraction unbound for this entry: `COC(=O)N[C@H](C(=O)N1CC(F)(F)C[C@H]1c1ncc(-c2ccc(-c3ccc4c(ccc5nc([C@@H]6C[Si](C)(C)CN6C(=O)[C@@H](NC(=O)OC)C(C)C)[nH]c54)c3)cc2)[nH]1)C(C)C`
[reply] < 0.001
